# STUDY_SYSTEM: human SSTR4 (Homo sapiens)
# Construct: expressed in transfected cells; host or cells: CHO-K1
# ASSAY_INFO: hSSTR4 cAMP assay (cAMP accumulation, LANCE Ultra cAMP kit, CHO-K1 human SSTR4 Gi cell line)
# Format: cell-based
# STUDY_CONDITIONS: functional agonism, forskolin 10 μM stimulated CHO-K1 human SSTR4 Gi cells, 30 min at 25° C., at least duplicate, averaged; read-out: hSSTR4 EC50
pEC50: −log10 of the molar value.
REPORTED_PROPERTY: pEC50

Recorded results for 8 compounds are shown here.
compound="Cn1cc(CN2CCNC[C@H]2C(=O)NC(C)(C)c2ncc3c(C4CC4)cccn23)cn1 [SC-120]" reported_property=pEC50 readout_value=7.28
compound="COCCN1CCNC[C@H]1C(=O)NC(C)(C)c1n[nH]c2c(C)cccc12 [SC-097]" reported_property=pEC50 readout_value=8.92
compound="Cc1cccn2c(C(C)(C)NC(=O)C3CNCCN3c3ccccc3)ncc12 (racemic) [SC-093]" reported_property=pEC50 readout_value=9.07
compound="Cc1cccn2c(C(C)(C)NC(=O)[C@@H]3CN(Cc4cnn(C(C)C)c4)CCN3)ncc12 [SC-074]" reported_property=pEC50 readout_value=5.59
compound="Cc1cccn2c(C(C)(C)NC(=O)[C@@H]3CNCCN3CC(C)(F)F)ncc12 [SC-019]" reported_property=pEC50 readout_value=9.24
compound="Cc1cccn2c(C(C)(C)NC(=O)[C@@H]3CN(Cc4cccnc4)CCN3)ncc12 [SC-061]" reported_property=pEC50 readout_value=5.77
compound="Cc1cccn2c(C(C)(C)NC(=O)[C@@H]3CN(C)CCN3CC3COC3)ncc12 [SC-048]" reported_property=pEC50 readout_value=8.04
compound="CN1CCN[C@H](C(=O)NC(C)(C)c2ncc3c(Cl)cccn23)C1 [SC-105]" reported_property=pEC50 readout_value=7.51

P = CC(C)(NC(=O)[C@@H]1CNCCN1)c1ncc2c(Cl)cccn12 [SC-108]
Q = Cc1cccc2c(C(C)(C)NC(=O)[C@@H]3CNCCN3C)n[nH]c12 [SC-094]
R = Cc1cccn2c(C(C)(C)NC(=O)[C@@H]3CN(C4CCC(F)(F)CC4)CCN3)ncc12 [SC-055]
S = Cc1cccn2c(C(C)(C)NC(=O)[C@@H]3CNCCN3C(=O)C3CC(F)(F)C3)ncc12 (racemic) [SC-011]
Ordering criterion: pEC50; begin with the maximum. // format: requested-order list of labels Q, P, S, R
(Q: 9.68, P: 7.72, S: 5.89, R: 5.08)

A = Cc1cccn2c(C(C)(C)NC(=O)[C@@H]3CNCCN3CC3(C)CCOCC3)ncc12 [SC-037]
B = Cc1cccn2c(C(C)(C)NC(=O)[C@@H]3CN(Cc4cnn(C)c4)CCN3)ncc12 [SC-071]
Lab note: record which item had the higher pEC50, A or B . Lab log: write the label of the selected item as the result. A

* * *

# STUDY_SYSTEM: human SSTR4 (Homo sapiens, UniProt P31391)
# Construct: expressed in transfected cells; host or cells: CHO-K1
# Sequence (P31391 whole entry): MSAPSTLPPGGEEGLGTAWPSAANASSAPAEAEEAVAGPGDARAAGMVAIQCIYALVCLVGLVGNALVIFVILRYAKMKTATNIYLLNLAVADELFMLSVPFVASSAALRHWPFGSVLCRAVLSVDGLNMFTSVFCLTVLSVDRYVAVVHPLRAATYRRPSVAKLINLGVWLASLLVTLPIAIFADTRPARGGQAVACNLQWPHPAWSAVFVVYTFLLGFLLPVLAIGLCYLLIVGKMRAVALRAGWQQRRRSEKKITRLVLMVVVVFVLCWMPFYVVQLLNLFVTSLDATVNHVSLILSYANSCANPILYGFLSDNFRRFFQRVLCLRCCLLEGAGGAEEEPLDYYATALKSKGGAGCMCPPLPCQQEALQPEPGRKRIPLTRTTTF
# ASSAY_INFO: hSSTR4 cAMP assay (cAMP accumulation, LANCE Ultra cAMP kit, CHO-K1 human SSTR4 Gi cell line)
# Type: cell-based
# STUDY_CONDITIONS: functional agonism, forskolin 10 μM stimulated CHO-K1 human SSTR4 Gi cells, 30 min at 25° C., at least duplicate, averaged; read-out: hSSTR4 EC50
REPORTED_PROPERTY: EC50 (µM)

compound=Cc1cccn2c(C(C)(C)NC(=O)[C@@H]3CN(Cc4ncco4)CCN3)ncc12 readout_value=1.3
compound=Cc1cccc2c(C(C)(C)NC(=O)[C@@H]3CNCCN3C(C)C)n[nH]c12 readout_value=0.00039
compound="Cc1cccn2c(C(C)(C)NC(=O)C3CNCCN3C(=O)C3CC3)ncc12 (racemic)" readout_value=6.6
compound=Cc1cccn2c(C(C)(C)NC(=O)[C@@H]3CNCCN3Cc3ccccc3F)ncc12 readout_value=0.00012
compound=Cc1cccn2c(C(C)(C)NC(=O)[C@@H]3CN(C(=O)c4cnn(C)c4)CCN3)ncc12 readout_value=6.7

I = Cc1cccn2c(C(C)(C)NC(=O)[C@@H]3CN(C)CCN3)ncc12
II = CN1CCNC[C@H]1C(=O)NC(C)(C)c1nnc2c(Cl)cccn12
III = Cc1cccn2c(C(C)(C)NC(=O)[C@@H]3CNCCN3)ncc12
Please give the order of these compounds when sorted by EC50, largest value leading. Give the labels in the order requested. II, I, III
(II: 1.11 µM, I: 0.35 µM, III: 0.0095 µM)

* * *

# STUDY_SYSTEM: human SSTR4 (Homo sapiens, UniProt P31391)
# Construct: expressed in transfected cells; host or cells: CHO-K1
# ASSAY_INFO: hSSTR4 cAMP assay (cAMP accumulation, LANCE Ultra cAMP kit, CHO-K1 human SSTR4 Gi cell line)
# Type: cell-based
# STUDY_CONDITIONS: functional agonism, forskolin 10 μM stimulated CHO-K1 human SSTR4 Gi cells, 30 min at 25° C., at least duplicate, averaged; read-out: hSSTR4 EC50
pEC50: −log10 of the molar value.
REPORTED_PROPERTY: pEC50

# count of solved cases: 2
compound=Cc1cccn2c(C(C)(C)NC(=O)[C@@H]3CN(C4CCC4)CCN3)ncc12 readout_value=6.28
compound=CN1CCN[C@H](C(=O)NC(C)(C)c2ncc3c(C4CC4)cccn23)C1 readout_value=6.27

a = Cc1cccn2c(C(C)(C)NC(=O)C3CNCCN3C(=O)C3COC3)ncc12 (racemic)
b = Cc1cccn2c(C(C)(C)NC(=O)[C@@H]3CNCCN3Cc3ccc(F)cc3)ncc12
Dear colleague, could you let me know whether a or b has the lower recorded pEC50? Thanks. Please indicate the selected item by its label. a
(a: 6.46, b: 10.10)
